Assay System: GSK-3β (Homo sapiens, UniProt P49841)
Sequence (P49841 whole entry): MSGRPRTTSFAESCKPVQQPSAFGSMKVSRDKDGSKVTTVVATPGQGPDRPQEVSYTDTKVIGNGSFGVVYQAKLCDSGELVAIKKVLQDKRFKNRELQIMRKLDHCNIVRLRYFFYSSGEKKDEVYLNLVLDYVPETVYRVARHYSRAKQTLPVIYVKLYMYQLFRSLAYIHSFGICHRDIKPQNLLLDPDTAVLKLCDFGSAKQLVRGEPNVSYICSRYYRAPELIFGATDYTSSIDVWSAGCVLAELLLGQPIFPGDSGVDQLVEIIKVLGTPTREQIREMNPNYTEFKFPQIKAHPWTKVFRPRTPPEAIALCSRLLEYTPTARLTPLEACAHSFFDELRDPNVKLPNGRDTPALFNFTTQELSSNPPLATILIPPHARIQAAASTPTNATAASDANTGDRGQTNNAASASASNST
Method Summary: GSK-3β kinase HotSpot assay (Reaction Biology)
Assay type: biochemical
Conditions Used: 25 μM compound, 10 μM ATP, duplicate, average; remaining kinase activity vs vehicle
Response field label takes satisfied when activity at 25 µM is strictly below 40% and not satisfied in all other cases.

Cc1cccc(/C=C2\NC(=O)NC2=O)n1 [Compound 23]    satisfied
COc1cccc(/C=C2\NC(=O)NC2=O)n1 [Compound 15]    satisfied
O=C1NC(=O)/C(=C/c2csc3ccccc23)N1 [Compound 29]    satisfied
Cc1ccnc(/C=C2\NC(=O)NC2=O)c1 [Compound 21]    not satisfied
O=C1NC(=O)/C(=C/c2ccccn2)N1 [Compound 17]    not satisfied
Cc1ccc(/C=C2\NC(=O)NC2=O)nc1 [Compound 22]    not satisfied
O=C1NC(=O)/C(=C/c2ncccc2Cl)N1 [Compound 24]    not satisfied
O=C1NC(=O)/C(=C/c2ccc(Br)cn2)N1 [Compound 26]    satisfied

---

Assay System: human matrix metalloproteinase-12 (Homo sapiens, UniProt P39900)
Sequence (P39900 106-470): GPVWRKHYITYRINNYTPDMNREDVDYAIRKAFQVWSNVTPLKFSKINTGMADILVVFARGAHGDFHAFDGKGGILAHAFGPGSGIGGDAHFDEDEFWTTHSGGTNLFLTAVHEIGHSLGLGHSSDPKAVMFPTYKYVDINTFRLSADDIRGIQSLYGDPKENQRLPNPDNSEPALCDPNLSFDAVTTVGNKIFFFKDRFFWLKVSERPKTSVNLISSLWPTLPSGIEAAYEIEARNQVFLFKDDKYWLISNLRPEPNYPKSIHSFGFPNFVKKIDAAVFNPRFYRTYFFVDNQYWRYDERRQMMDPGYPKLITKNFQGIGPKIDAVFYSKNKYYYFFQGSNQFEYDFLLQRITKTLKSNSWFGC
Method Summary: Matrix metalloproteinase-12 fluorogenic substrate assay
Assay type: biochemical
Conditions Used: 200 μM compound; read-out: MMP-12 % Activity @ 200 μM
Where activity at 200 µM equals or exceeds 50%, the correct label is T; where it does not, the label is F.

O=C1NC(=O)/C(=C/c2ncccc2Cl)N1 [Compound 24]    F
O=C1NC(=O)/C(=C/c2cccc(Br)n2)N1 [Compound 27]    T
Cc1ccc(/C=C2\NC(=O)NC2=O)nc1 [Compound 22]    F
O=C1NC(=O)/C(=C/c2ccc(Br)cn2)N1 [Compound 26]    T
COc1cccc(/C=C2\NC(=O)NC2=O)n1 [Compound 15]    T
O=C1NC(=O)/C(=C/c2ccc3ccccc3n2)N1 [Compound 18]    T
Cc1cccnc1/C=C1\NC(=O)NC1=O [Compound 20]    F
Cc1ccnc(/C=C2\NC(=O)NC2=O)c1 [Compound 21]    F
O=C1NC(=O)/C(=C/c2csc3ccccc23)N1 [Compound 29]    T
O=C1NC(=O)/C(=C/c2ccc3ncccc3c2)N1 [Compound 28]    T
Cc1cccc(/C=C2\NC(=O)NC2=O)n1 [Compound 23]    F

---

Assay System: human carbonic anhydrase II (hCAII) (Homo sapiens)
Method Summary: Human carbonic anhydrase II p-nitrophenyl acetate assay
Assay type: biochemical
Conditions Used: 200 μM compound
Where activity at 200 µM equals or exceeds 90%, the correct label is Y; where it does not, the label is N.

Cc1ccnc(/C=C2\NC(=O)NC2=O)c1 [Compound 21]    Y
O=C1NC(=O)/C(=C/c2cccc(Br)n2)N1 [Compound 27]    N
O=C1NC(=O)/C(=C/c2csc3ccccc23)N1 [Compound 29]    N
COc1cccc(/C=C2\NC(=O)NC2=O)n1 [Compound 15]    N
O=C1NC(=O)/C(=C/c2cc(Cl)ccn2)N1 [Compound 25]    N

---

Assay System: UniProt:P00918
Method Summary: Human carbonic anhydrase II p-nitrophenyl acetate assay
Type: biochemical
Conditions Used: 200 μM compound
Below, each of the compounds is paired with its reported activity at 200 µM value.
Measured Metric: activity at 200 µM (%)

O=C1NC(=O)/C(=C/c2ncccc2Cl)N1    91.8
Cc1cccc(/C=C2\NC(=O)NC2=O)n1    88.9
O=C1NC(=O)/C(=C/c2cccnc2)N1    88.9
Cc1ccc(/C=C2\NC(=O)NC2=O)nc1    87.4
